Task for the reader: assign each of the following molecules its reported TGI.
- Tested on: HCC-2998 colon
- assay_details: NCI tumour cell line growth inhibition, 48 h
Quick reminder: number only, in µM, skip the unit.

Ask | Bench note: what TGI did `Cn1c(=O)c2c(nc3sc4c(n32)C(=O)c2c(O)ccc(O)c2C4=O)n(C)c1=O` show?
Reply | 17.5

Ask | Bench note: what TGI did `CN(C)CCCSc1nc2c(c(=N)n1-c1ccccc1)c(=S)n(-c1ccccc1)c(=S)n2-c1ccccc1` show?
Reply | 2.82

Ask | Bench note: what TGI did `C(=N\Nc1ccccc1)/c1nc2ccccc2nc1/C=N/Nc1ccccc1` show?
Reply | 25.3

Ask | Bench note: what TGI did `O=C(O)COc1ccc(C(=O)/C(SS/C(C(=O)c2ccc(OCC(=O)O)c(Cl)c2Cl)=C2\C=C(c3ccc(Cl)cc3)SS2)=C2/C=C(c3ccc(Cl)cc3)SS2)c(Cl)c1Cl` show?
Reply | 25.3

----------
measured_endpoint: GI50

Ask | Return GI50 measured with MDA-MB-435 given this molecule: `CC(=O)Nc1c(I)c(NC(C)=O)c(I)c(C(=O)O)c1I`
Reply | > 100000 nM

Ask | Return GI50 measured with MDA-MB-435 given this molecule: `COc1ccc(Sc2nc3cc(N)cc(N)c3nc2-c2ccccc2)cc1`
Reply | > 100000 nM

Ask | Return GI50 measured with MDA-MB-435 given this molecule: `CCOC(=O)Nc1nc2ccc(Br)cc2s1`
Reply | > 50000 nM

Ask | Return GI50 measured with MDA-MB-435 given this molecule: `[Cl][Hg][c]1ccc(Cl)s1`
Reply | 2080 nM

Ask | Return GI50 measured with MDA-MB-435 given this molecule: `C#CCN(Cc1nc2cc(C(F)(F)F)ccc2nc1-c1ccccc1)c1ccc(C)cc1`
Reply | 2730 nM

Ask | Return GI50 measured with MDA-MB-435 given this molecule: `C=C1C(=O)O[C@H]2[C@H]1CC/C(C=Nc1c(N)cc(C(F)(F)F)cc1C(F)(F)F)=C\CC[C@@]1(C)O[C@@H]21`
Reply | 2030 nM

Ask | Return GI50 measured with MDA-MB-435 given this molecule: CC(C)(C)[Si](C)(C)OC1[C@@H](O[Si](C)(C)C(C)(C)C)[C@@H](CNC(=O)NC(=O)CF)O[C@H]1n1cnc2c(NC(=O)Nc3ccccc3)ncnc21 (some centres not stated)
Reply | 14600 nM

Ask | Return GI50 measured with MDA-MB-435 given this molecule: `N#Cc1c(N)n2c(nc1=Nc1ccc(Cl)cc1)sc1cc(Cl)ccc12`
Reply | 6180 nM

Ask | Return GI50 measured with MDA-MB-435 given this molecule: `Cc1ccc(-c2cc3c4c(nc5ccccc53)C(=O)c3cccnc3-c4n2)cc1`
Reply | 5080 nM

Ask | Return GI50 measured with MDA-MB-435 given this molecule: `CCCCCCCCC/C(=N\NC(=O)c1ccncc1)c1ccc(O)c(O)c1O`
Reply | 456 nM

Ask | Return GI50 measured with MDA-MB-435 given this molecule: `CN(C)CCCCC(C(=O)CBr)(c1ccccc1)c1ccccc1`
Reply | 2450 nM

Ask | Return GI50 measured with MDA-MB-435 given this molecule: `CCCCCCCCCCCCSC1=C(Cl)C(=O)C(OC)=C(OC)C1=O`
Reply | 653 nM

----------
- System: BT-549 breast
- assay_details: NCI tumour cell line growth inhibition, 48 h; in the data active = GI50 below about 0.43 µM; inactive = the rest
Where a SMILES comes first, the peptide text is derived from it. Bridges are numbered along the chain shown (N, C = ends). [ ]: non-standard residue; d: D form. The star is where a group is joined. ξ: configuration not given here. ξDab(CH2SO3H) = NC(CCNCS(=O)(=O)O)C(=O)O; Heptanoyl(6-Me) = CC(C)CCCCC(=O)*; Dab = NCC[CH](N)C(=O)O
Just give me one of these, please: 1 = active, -1 = inactive

Ask | I would be grateful if you could indicate the recorded call for CC[C@@H](C(=O)[C@H](C)[C@H](O)[C@@H](C)[C@H]1O[C@H]([C@@H](CC)C(=O)N(CC)CC)CC[C@H]1C)C1O[C@]2(C=C[C@@H](O)[C@]3(CC[C@@](C)([C@H]4CC[C@](O)(CC)[C@H](C)O4)O3)O2)[C@H](C)C[C@@H]1C (stereo partly drawn) .
Reply | -1

Ask | I would be grateful if you could indicate the recorded call for `CCCCCCCCCCCCSC1=C(Cl)C(=O)C(OC)=C(OC)C1=O` .
Reply | -1

Ask | I would be grateful if you could indicate the recorded call for `CCCCCCCCCCCC(=O)N1CCN(C(C)=O)CC1` .
Reply | -1

Ask | I would be grateful if you could indicate the recorded call for `C=C1C(=O)O[C@H]2[C@H]1CC/C(C=Nc1c(N)cc(C(F)(F)F)cc1C(F)(F)F)=C\CC[C@@]1(C)O[C@@H]21` .
Reply | -1

Ask | I would be grateful if you could indicate the recorded call for `CCOC(=O)Nc1nc2ccc(Br)cc2s1` .
Reply | -1

Ask | I would be grateful if you could indicate the recorded call for `COc1cccc(/C=N/NC(=O)c2ccccc2N2CCCC2)c1O` .
Reply | -1

Ask | I would be grateful if you could indicate the recorded call for `Cc1cc(O)cc(C)c1/C=C/c1cncc(C(N)=O)c1` .
Reply | -1

Ask | I would be grateful if you could indicate the recorded call for `CC/C(=C(/c1ccc(O)cc1)c1ccc(OCCN)cc1)c1ccccc1` .
Reply | -1

Ask | I would be grateful if you could indicate the recorded call for `COc1cc(/C(=C2/O[C@@H]([C@H]3COC(C)(C)O3)[C@H]3OC(C)(C)O[C@@H]23)c2ccc3ccccc3c2)cc(OC)c1OC` .
Reply | -1

Ask | I would be grateful if you could indicate the recorded call for `S=C(NCCNC(=S)[S][Sn]([c]1ccccc1)([c]1ccccc1)[c]1ccccc1)[S][Sn]([c]1ccccc1)([c]1ccccc1)[c]1ccccc1` .
Reply | 1

Ask | I would be grateful if you could indicate the recorded call for `CCCc1cc(=O)n2c(C(=O)Nc3cccc(C(=O)OCC)c3)c(C(=O)Nc3ccc(F)cc3)sc2n1` .
Reply | -1

Ask | I would be grateful if you could indicate the recorded call for `[Cl][Hg][c]1ccc(Cl)s1` .
Reply | -1

Ask | I would be grateful if you could indicate the recorded call for `N#Cc1c(N2CCOCC2)nc(=S)[nH]c1-c1ccccc1` .
Reply | -1

Ask | I would be grateful if you could indicate the recorded call for `COc1ccc2c(O)c(/C=C3\N=Nc4ccccc43)oc2c1C[C@@H]1CCNC[C@H]1F` .
Reply | -1

Ask | I would be grateful if you could indicate the recorded call for `CC(=O)Nc1c(I)c(NC(C)=O)c(I)c(C(=O)O)c1I` .
Reply | -1

Ask | I would be grateful if you could indicate the recorded call for `CCNC(=O)Nc1ccc(Oc2ccnc3ccc4c(ccn4C)c23)cc1` .
Reply | -1

Ask | I would be grateful if you could indicate the recorded call for `COc1cc2ncnc(Nc3cccc(Cl)c3F)c2cc1OC(=O)N1CCN(C)C[C@H]1C` .
Reply | -1

Ask | I would be grateful if you could indicate the recorded call for CCC(C)C1NC(=O)C(CCNCS(=O)(=O)O)NC(=O)C(NC(=O)C(CCNCS(=O)(=O)O)NC(=O)C(NC(=O)C(CCNCS(=O)(=O)O)NC(=O)CCCCC(C)C)C(C)O)CCNC(=O)C(C(C)O)NC(=O)C(CCNCS(=O)(=O)O)NC(=O)C(CCNCS(=O)(=O)O)NC(=O)C(C(C)CC)NC1=O (stereo not drawn) ({Heptanoyl(6-Me)}-[ξDab(CH2SO3H)]T[ξDab(CH2SO3H)][Dab][ξDab(CH2SO3H)]II[ξDab(CH2SO3H)][ξDab(CH2SO3H)]T; lactam 4-C; configuration not given here) .
Reply | -1

----------
Task for the reader: assign each of the following molecules its reported TGI.
- System: SF-539 CNS
- assay_details: NCI tumour cell line growth inhibition, 48 h

Ask | Bench note: what TGI did O=C(O)c1cc2c(cc1CC(Cc1ccc3c(c1)CCCC3)C(=O)O)CCCC2 (configuration not stated) show?
Reply | > 100 µM

Ask | Bench note: what TGI did `CCOC(=O)c1cc2c3c(c(C(C)=O)c(O)c2[nH]1)N(C(C)=O)CC3` show?
Reply | > 100 µM

Ask | Bench note: what TGI did CCOC(=O)NC/C=C/COC1CCCCO1 (configuration not stated) show?
Reply | > 100 µM

Ask | Bench note: what TGI did `CCCn1cc2c(SC)nc(SC)nc2n1` show?
Reply | > 100 µM

Ask | Bench note: what TGI did `N#Cc1ccc(CSC2=C(c3ccc(Cl)cc3)S/C(=C3\SC(SCc4ccc(C#N)cc4)=C(c4ccc(Cl)cc4)S3)S2)cc1` show?
Reply | > 100 µM

Ask | Bench note: what TGI did Clc1ccc(C(Cc2cccc(Cl)c2)c2c(Cl)nc(N3CCNCC3)nc2Cl)cc1 (configuration not stated) show?
Reply | 35.2 µM

Ask | Bench note: what TGI did `COc1cc(O)c2c(c1)O[C@@H]1OCC[C@H]21` show?
Reply | > 100 µM

Ask | Bench note: what TGI did `OC[P+](CO)(CO)C12CC3CC(CC(C3)C1)C2` show?
Reply | > 100 µM

Ask | Bench note: what TGI did COc1ccc(OC)c(C2CCc3c(cnc4nc(N)nc(N)c34)C2)c1 (configuration not stated) show?
Reply | 89.1 µM

Ask | Bench note: what TGI did `O=C(NC(=O)c1ccccc1[N+](=O)[O-])Nc1ccc(Oc2ncc(Cl)cn2)c([N+](=O)[O-])c1` show?
Reply | 8.38 µM

Ask | Bench note: what TGI did `N#Cc1ccc(N2CCOCC2)cc1` show?
Reply | > 100 µM

Ask | Bench note: what TGI did CC1=NC2c3c(-c4ccc(Cl)cc4)cn(-c4ccc(C)cc4)c3N=CN2N1 (configuration not stated) show?
Reply | > 100 µM

Source listed as PubChem BioAssay (NCI).
